Provenance of the data: the nanobody polyreactivity screen of Harvey et al. (2022)

- test: yeast display, Sf9 membrane polyspecificity reagent, FACS + sequencing; frameworks hold sequencing errors
quantity.kind: polyreactivity (PSR sort gate)

[[record]]
primary_sequence = "QVQLVESGGGLVQAGGSLRLSCASSGFIFVNYAMEWYRQAPGKERELVAAISRNGGRTYYADSVKGRFTISRDNAKNTVYFQMNSLKPEDTAVYYCTAELSGKRDYWGQGTQVTVSS"
quantity_kind = "polyreactivity (PSR sort gate)"
meas_value = "high polyreactivity"

[[record]]
primary_sequence = "QVQLVESGGGLVQAGGSLRLSCAASGSTFRGNAMGWYRQAPGKERELVAAITGRGGRTYYADSVKGRFTISRDNAKNTVYLQMNSLKPEDTAVYYCAAYSRYKPYGITAYDYWGQGTQVNVSS"
quantity_kind = "polyreactivity (PSR sort gate)"
meas_value = "high polyreactivity"

[[record]]
primary_sequence = "QVQLVESGGGIVQAGGSLRLNSAASGITINGNAMGWYRQEPGKERQLVAAISRSSSRTYYADSVKGRFTISRDNAKNTVYLQKNSLKQEDTAVYYCAALSLNVDAPSYGYWGQGTQVTVSS"
quantity_kind = "polyreactivity (PSR sort gate)"
meas_value = "high polyreactivity"

